Recorded values, source patent US20260226037A1.

# maps each entry to its IC50
test system: RPMI-LR5 cells; assay: XTT cytotoxicity, RPMI-LR5; format: cell-based; settings: RPMI-LR5, multiple myeloma, melphalan resistant; read-out: IC50
Where a SMILES comes first, the peptide text is derived from it. [ ]: non-standard residue; d: D form. The star is where a group is joined. Dolaproine = CO[C@@H]([C@@H]1CCCN1)[C@@H](C)C(=O)O; Dil = CC[C@H](C)[C@H](NC)[C@@H](CC(=O)O)OC; X1 = C[C@@H](N*)[C@@H](O)c1ccccc1; NMeV = CN[C@H](C(=O)O)C(C)C
assay endpoint: IC50 (nM)

{"molecule": "Cc1c(C(=O)OC2CCCC2)[nH]c2c1C(=O)CC(c1ncco1)C2 (stereo not drawn)", "result modifier": "=", "reported result": 73}
{"molecule": "Cc1c(C(=O)OCCCCN)[nH]c2c1C(=O)CC(c1ncco1)C2.Cl.Cl (stereo not drawn)", "result modifier": "=", "reported result": 1430}
{"molecule": "CCCCCOC(=O)c1[nH]c2c(c1C)C(=O)CC(c1ncco1)C2 (stereo not drawn)", "result modifier": "=", "reported result": 19}
{"molecule": "CCCCCOC(=O)c1[nH]c2c(c1C)C(=O)CC(c1ccco1)C2 (stereo not drawn) [SMS001, reference compound]", "result modifier": "=", "reported result": 29}
{"molecule": "CC[C@]1(O)C[C@H]2CN(CCc3c([nH]c4ccccc34)[C@@](C(=O)OC)(c3cc4c(cc3OC)N(C=O)[C@H]3[C@@](O)(C(=O)OC)[C@H](OC(C)=O)[C@]5(CC)C=CCN6CC[C@]43[C@@H]65)C2)C1 [Vincristine, reference compound]", "result modifier": ">", "reported result": 4}
{"molecule": "CC[C@H](C)[C@@H]([C@@H](CC(=O)N1CCC[C@H]1[C@H](OC)[C@@H](C)C(=O)N[C@H](C)[C@@H](O)c1ccccc1)OC)N(C)C(=O)[C@@H](NC(=O)[C@@H](NC)C(C)C)C(C)C [MMAE, reference compound] (H-[NMeV]V[Dil][Dolaproine]-X1)", "result modifier": ">", "reported result": 15}
